- Target: TK in Mpn extracts (Mycoplasmoides pneumoniae, UniProt P75070)
- Construct: endogenous in cells; host or cells: Mycoplasma pneumoniae M129 total protein extract
- Sequence (P75070 1-191): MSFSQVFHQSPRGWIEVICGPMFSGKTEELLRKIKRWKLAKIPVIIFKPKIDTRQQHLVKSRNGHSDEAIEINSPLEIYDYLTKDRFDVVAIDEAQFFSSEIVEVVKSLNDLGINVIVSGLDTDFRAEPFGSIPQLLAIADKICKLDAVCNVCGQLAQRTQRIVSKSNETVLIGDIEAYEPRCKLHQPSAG
- Assay Text: Inhibition of dT phosphorylation in Mpn protein extracts
- Assay type: biochemical
- Conditions Used: 10 μM tritium labelled thymidine; read-out: IC50 Mpn extracts
Parameter Measured: IC50 (µM)
Answers are plain numbers, in µM.

Noted for O=c1[nH]c(=O)n([C@H]2C[C@H](O)[C@@H](CO)O2)cc1C(F)(F)F : its IC50 reads 9.1
